method.summary: Probe fluorescence ratio response to arachidonic acid relative to ADIFAB2
Format: binding
assay.conditions: arachidonic acid; response relative to ADIFAB2
Item-by-item account of DR/DR AA

INSERT INTO measurements (molecule, result) VALUES
  ('38G, 72A (protein, listed as Rattus norvegicus, PEPTIDE (1)...(131) wild-type rat intestinal fatty acid binding protein) AFDGTWKVDRNENYEKFMEKMGINVVKRKLGAHDNLKGTITQEGNKFTVKESSNFRNIDVVFELGVDFAYSAADGTELTGTWTMEGNKLVGKFKRVDNGKELIAVREISGNELIQTYTYEGVEAKRIFKKE', 0.996);

Could you now look at the following molecule, please?
Data request: Reported DR/DR AA, molecule 72G 73F 74N (protein, listed as Rattus norvegicus, PEPTIDE (1)...(131) wild-type rat intestinal fatty acid binding protein) AFDGTWKVDRNENYEKFMEKMGINVVKRKLGAHDNLKLTITQEGNKFTVKESSNFRNIDVVFELGVDFAYSGFNGTELTGTWTMEGNKLVGKFKRVDNGKELIAVREISGNELIQTYTYEGVEAKRIFKKE : ____
Data returned: 0.617
